assay.comment: yeast display, Sf9 membrane polyspecificity reagent, FACS + sequencing; frameworks hold sequencing errors
property.label: polyreactivity (PSR sort gate)

A selection of reference data follows.
[[record]]
ordered_residues = "QFQLVESGGGLVQAGGSLRLSCAASGITFFPYAMGWYRQAPGKERELVASISDGGGTNYADSVKGRFTISRDNAKNTVYLQMNSLKPEDTAVYYCATDASTYAYYGGDYWGQGTQVTVSS"
property_label = "polyreactivity (PSR sort gate)"
reported_result = "low polyreactivity"

[[record]]
ordered_residues = "QVHLEESGGCLVQAGGSLRLSCAASGLFARNAMGWYRQAPGKERELVAAINRSGGSTYYADSVKGPFTISRDNAKNTVYLQMKSLKPEDTAVYYCNQAFTHTKDLSPIAYEYVFWGQGTQVTVSS"
property_label = "polyreactivity (PSR sort gate)"
reported_result = "low polyreactivity"

[[record]]
ordered_residues = "QVQLEESGGGLVQAGGSLRLSWAASGRTIAAYAMGWYRQAPGKERELVAAISIGGSTNYADSVKGRFTISRDNAKNTVYLQMNSLKPEDTAVYYCAAPRRRYLRARIRYEYWGQGTQVTVSS"
property_label = "polyreactivity (PSR sort gate)"
reported_result = "high polyreactivity"

[[record]]
ordered_residues = "QVQLVESGGGLVQAGGSLRLSCAASGSIVDTNAMGWYRQAPGKERELVAAITSTDSTNYADSVKGRFTISRDNAKNTVYLQMNSLKPEDTAVYYCNAALSQLRRGGLAMDYWGQGTQVTVSS"
property_label = "polyreactivity (PSR sort gate)"
reported_result = "low polyreactivity"

[[record]]
ordered_residues = "QVQLVESGGGLVQAGGSLRLSCAASGRIFYHNAMGWYRQAPGKERELVAAISWSGGNTYYADSVKGRFTISRDNAKNTVYLQMNSLKPEDTAVYYCNRYWYRDRLWLYDYWGQGTQVTVSS"
property_label = "polyreactivity (PSR sort gate)"
reported_result = "high polyreactivity"

[[record]]
ordered_residues = "QVQLVESGGGLVQAGGSLRLSCAASGSTFKRYAMGWYRQAPGKERELVAAIRRGGITNYADSVKGRFTISRDNAKNTVYLQINSLKPEDTAVYYWAATSIYSNYYREGYWGQGTQVTVSS"
property_label = "polyreactivity (PSR sort gate)"
reported_result = "low polyreactivity"


What value of polyreactivity (PSR sort gate) has been recorded for this entry: `IIQAGGSLRLSCAASGRTLSGYAMGWYRQAPGKERELIADITSGGSTYYADSVKGRFTISRDNAKNTVYLQMNSLKPEDTAVYYCAAERQIRSFWSSRTYEFGYWGQGTQVTVSS`
low polyreactivity

* * *

assay.comment: yeast display, Sf9 membrane polyspecificity reagent, FACS + sequencing; frameworks hold sequencing errors
property.label: polyreactivity (PSR sort gate)

A selection of reference data follows.
[[record]]
ordered_residues = "QVQLVESGGGLVQAGGTLRLSCAASGSTQWGYDMGWYRQATGKERELVAAISSSGSNTRYADSVKGRFTISRDNEKNTVYLQLNRLKPEDTAVYYCTARTYLRGKTDYGYDSWGQGTHVTVSS"
reported_result = "high polyreactivity"

[[record]]
ordered_residues = "QVQLVESGGGLVQAGGSLRLSCAASGSIFAAYAMGGYRQAPGKERELVATIRWTSGSTYYADSVKGRFTISRDNAKNTVYLQMNSLKPEDTAVFYCAAQKNKYYWPRFGYWGQGTQVTGSS"
reported_result = "high polyreactivity"

[[record]]
ordered_residues = "QVQLVESGGGLVQPGGSLRLSCAASGRTIERNTMGWYRQAPGKERELFAAISYDGGSTYYADSVKGRFTISRDNAKNTVYLQMNSLKPEDTAVYYCNAGGSEIYRSPFDYWGQGTEVTVSS"
reported_result = "low polyreactivity"

[[record]]
ordered_residues = "QVQLVESGGGLVQAGGSLRLSCAASGRIFVSYVMGWYRPAPGKEREFVAAIRRSGSSTYYADSVKGRFTISRDNAKNTVYLQINRLKPEDTAVYYCAAYQRSRTLRRYDYWGQGTQVTVSS"
reported_result = "high polyreactivity"

[[record]]
ordered_residues = "QVQLVESGGGLVQAGGSLRLSCAASGSIFVYYAMGWYRQAPGKERELVAAITETGGDTYYADSVKGRFTISRDNAKNTVYLQMNSLKPEDTAVYYCNTVRRSYWSWSTENSDYWGQGTQVTVSS"
reported_result = "low polyreactivity"

[[record]]
ordered_residues = "QVQLVESGGGLVQAGGSLRLSCAASGRIFGENAMGGYRQAPGKEREFVAVISISDASTYYADSVKGRFTISRDNAKNTVYLQMNSLKPEDTAVYYCAADLTDFLYVASDYWGQGTQVTVSS"
reported_result = "low polyreactivity"

[[record]]
ordered_residues = "QVQLVESGGGLVQAGGSLRLSCAASGRTFYGYALGWYRQAPGKERELVAAISDDASTYYADSVKGRFTISRDNAKNTVYLQMNSLKPEDTAVYYCAAEPEWPYGRFDYWGQGTQVTVSS"
reported_result = "high polyreactivity"

[[record]]
ordered_residues = "QVQLVESGGGLVQAGGSLRLSCAASGSTVYRYTMGWYRQAPGKERELVAAISRSGGRTYYADSVKGRFTISRDNAKNTVYLQMNSMKPEDTAVDYCNAEIAASAVQAQEGEFWGQGTQVTVSS"
reported_result = "high polyreactivity"


What value of polyreactivity (PSR sort gate) has been recorded for this entry: `QVQLVESGGGLVQAGGSLRLSCAASGSIFAPYAMGWTRQAPGKERELVASISVRSGSTHYADSVKGRFTISRDNAKNTVYLQMNCLNPEDTAVYYCNARTYDYSWVWESRWWYYYWGQGTQVTVSS`
high polyreactivity

What value of polyreactivity (PSR sort gate) has been recorded for this entry: `QVQLVESGGGIVQAGGSLRLSCAASGSTFYVNTMGWYRQAPGKERDLVAAISYTGGNTYYADSVKGRFTISRDNAKNTVYLQMNSLKPEDTAVYYCAARILYRGTGYPYRMNYWGQGTQVTVSS`
high polyreactivity

What value of polyreactivity (PSR sort gate) has been recorded for this entry: `QVQLVESGGGLVQAGGSLRLSCAASGSIFVDNAMGWYRQAPGKERELVAVITLRSGSTNYADSVKGRFTISRDNAKNTVYLQMNSLKPEDTAVYYCAADDTYHDYQRDTDDDYWGQGTQVTVSS`
low polyreactivity

What value of polyreactivity (PSR sort gate) has been recorded for this entry: `QVQLVESGGGLVQAGGSLRLSCAASGSTSESNAMGWYRQAPGKERELVAAIRSSGGGTYYADSVKGRFTISRDNAKNTVYLQMNSLKPEDTAVYYCAKDVPEDYEFYYWGQGTQVTVSS`
low polyreactivity

What value of polyreactivity (PSR sort gate) has been recorded for this entry: `QDQLVESGGGLVQAGGSLRLSCAASGFTFWEYAMGWYRHAPGKERELVAAISRGTSTYYADSVKGRFTISRDNAKNTVYLQMNSLKPEDTAVYYCASAPSYYPARHGYWGQGTQVTVSS`
low polyreactivity

What value of polyreactivity (PSR sort gate) has been recorded for this entry: `QVQLVESGGGLVKAGGSLRLICDASGRTFYSYAMGWYRQAPGKERELVAAINTSGGRTHYADSVKGRFTISRDNAKYTVYLHMNSLKAEDTAVYYCAAERKNKYDYWGQGTQVTVSS`
high polyreactivity

What value of polyreactivity (PSR sort gate) has been recorded for this entry: `QVQLVESGGGLVQAGGSLRLSCAASGLIFSSNAMGWYRQAPGKERELVATISWSGGSTYYADSVKGRFTISRDNAKNTVYLQMNSLKPEDTAVYYCCWSALNGYDYWGQGTQVTVSS`
high polyreactivity

What value of polyreactivity (PSR sort gate) has been recorded for this entry: `QVQLVETGGGLVQAGGSLRLSCAASARIFLGYTMGWYRKAPGKEMELVASITWSGGSTYYADSVKGRFTISRDNAKNTVYLQMNRLKPDVTAVYYCNAVYWVARGRYDYWGQGTQVTVSS`
high polyreactivity
